Here the recorded % change in SGLT2 expression relative to saline is given for each entry.
# Tested on: mouse SGLT2 mRNA
# assay-name: Mouse SGLT2 mRNA levels in kidney, additional 1-10-1 and 2-8-2 MOE gapmers, Balb/c mice (Example 15, Table 68)
# Format: in vivo
# condition-summary: 0.1 umol/kg i.p. twice per week for three weeks
Strand notation (5' to 3'): a small letter for the sugar, then the base; units joined by * are phosphorothioate-linked, units joined directly phosphodiester-linked; [ ] holds rarer units or linkages, { } end groups; capitals alone tell only the bases. e = 2'-O-(2-methoxyethyl) (MOE); [5mC] = 5-methylcytosine; d = 2'-deoxy (DNA)
experimental-endpoint: % change in SGLT2 expression relative to saline (%)

substance	target-or-test-system	recorded-result
ISIS 379699: SGLT2; GGCATGAGCTTC 1-10-1 MOE (antisense eG*dG*d[5mC]*dA*dT*dG*dA*dG*d[5mC]*dT*dT*e[5mC])	mouse SGLT2 mRNA	−60
ISIS 379692: SGLT2; 1-10-1 MOE gapmer (antisense eT*dG*dT*dT*d[5mC]*d[5mC]*dA*dG*d[5mC]*d[5mC]*d[5mC]*eA)	mouse SGLT2 mRNA	−75
ISIS 388625: SGLT2; TGTTCCAGCCCA 2-8-2 MOE Gapmer (antisense eT*eG*dT*dT*d[5mC]*d[5mC]*dA*dG*d[5mC]*d[5mC]*e[5mC]*eA)	mouse SGLT2 mRNA	−88

* * *

Here the recorded AST is given for each entry.
# assay-name: Transaminase levels, liver and spleen weights, body weight (Example 6, Table 47)
# Format: in vivo, mouse
# condition-summary: 8 μmol/kg single i.p.; 72 h; Balb/c mice
Strand notation (5' to 3'): a small letter for the sugar, then the base; units joined by * are phosphorothioate-linked, units joined directly phosphodiester-linked; [ ] holds rarer units or linkages, { } end groups; capitals alone tell only the bases. e = 2'-O-(2-methoxyethyl) (MOE); l = locked nucleic acid (LNA); [5mC] = 5-methylcytosine; d = 2'-deoxy (DNA)

substance	unit-spec	AST
391172 (antisense lC*lT*dA*dG*dC*dC*dT*dC*dT*dG*dG*dA*lT*lT*lT) [compound 391172]	IU/L	48.5
141923 (antisense CCTTCCCTGAAGGTTCCTCC; sugars from the 5' end e5 d10 e5, all phosphorothioate, methylation of C not given here) [compound 141923]	IU/L	89.5
392061 (antisense l[5mC]*lT*dA*dG*dC*dC*dT*dC*dT*dG*dG*dA*lT*lT) [compound 392061]	IU/L	189
384073 (antisense lG*lC*lT*dA*dG*d[5mC]*d[5mC]*dT*d[5mC]*dT*dG*dG*dA*lT*lT*lT) [compound 384073]	IU/L	57.8

* * *

# Tested on: mouse SGLT2 mRNA
# assay-name: Mouse SGLT2 mRNA levels in kidney, MOE versus Methyleneoxy BNA gapmers, Balb/c mice (Example 15, Table 69)
# Assay type: in vivo
# condition-summary: 5 nmol/kg i.p. twice per week for three weeks
Strand notation (5' to 3'): a small letter for the sugar, then the base; units joined by * are phosphorothioate-linked, units joined directly phosphodiester-linked; [ ] holds rarer units or linkages, { } end groups; capitals alone tell only the bases. e = 2'-O-(2-methoxyethyl) (MOE); l = locked nucleic acid (LNA); [5mC] = 5-methylcytosine; d = 2'-deoxy (DNA)
experimental-endpoint: SGLT2 mRNA, percent change relative to saline treated animals (percent change)

substance	target-or-test-system	unit-spec	recorded-result
ISIS 379692: SGLT2; 1-10-1 MOE gapmer (antisense eT*dG*dT*dT*d[5mC]*d[5mC]*dA*dG*d[5mC]*d[5mC]*d[5mC]*eA)	mouse SGLT2 mRNA	percent change	−7
ISIS 392170: SGLT2; 1-10-1 Methyleneoxy BNA Gapmer (antisense lT*dG*dT*dT*d[5mC]*d[5mC]*dA*dG*d[5mC]*d[5mC]*d[5mC]*lA)	mouse SGLT2 mRNA	percent change	−23
ISIS 388625: SGLT2; TGTTCCAGCCCA 2-8-2 MOE Gapmer (antisense eT*eG*dT*dT*d[5mC]*d[5mC]*dA*dG*d[5mC]*d[5mC]*e[5mC]*eA)	mouse SGLT2 mRNA	percent change	−18
ISIS 392173: SGLT2; 2-8-2 Methyleneoxy BNA Gapmer (antisense lT*lG*dT*dT*d[5mC]*d[5mC]*dA*dG*d[5mC]*d[5mC]*l[5mC]*lA)	mouse SGLT2 mRNA	percent change	−44

* * *

# Tested on: PCSK9 mRNA
# assay-name: Dose-dependent inhibition of PCSK9 in Hep3B cells with EC50 (Example 19, Table 76)
# Format: cell-based, human
# condition-summary: 160 nM
Strand notation (5' to 3'): a small letter for the sugar, then the base; units joined by * are phosphorothioate-linked, units joined directly phosphodiester-linked; [ ] holds rarer units or linkages, { } end groups; capitals alone tell only the bases. e = 2'-O-(2-methoxyethyl) (MOE); [5mC] = 5-methylcytosine; d = 2'-deoxy (DNA)

substance	target-or-test-system	unit-spec	% Inhibition of PCSK9
400327 (eG*eT*d[5mC]*d[5mC]*d[5mC]*d[5mC]*dA*dA*dA*dG*dT*d[5mC]*e[5mC]*e[5mC]; antisense) [compound 400327]	PCSK9 mRNA	%	55
400330 (e[5mC]*e[5mC]*dA*d[5mC]*dG*dT*dG*dG*dG*d[5mC]*dA*dG*e[5mC]*eA; antisense) [compound 400330]	PCSK9 mRNA	%	71
400331 (eG*e[5mC]*d[5mC]*dA*d[5mC]*dG*dT*dG*dG*dG*d[5mC]*dA*eG*e[5mC]; antisense) [compound 400331]	PCSK9 mRNA	%	82
400308 (e[5mC]*e[5mC]*dG*dG*d[5mC]*d[5mC]*dG*d[5mC]*dT*dG*dA*d[5mC]*e[5mC]*eA; antisense) [compound 400308]	PCSK9 mRNA	%	86
400353 (antisense eA*e[5mC]*dA*d[5mC]*d[5mC]*d[5mC]*dT*d[5mC]*dA*d[5mC]*d[5mC]*d[5mC]*e[5mC]*e[5mC]) [compound 400353]	PCSK9 mRNA	%	48
400352 (antisense e[5mC]*eA*d[5mC]*d[5mC]*d[5mC]*dT*d[5mC]*dA*d[5mC]*d[5mC]*d[5mC]*d[5mC]*e[5mC]*eA) [compound 400352]	PCSK9 mRNA	%	64
400307 (e[5mC]*eG*dG*d[5mC]*d[5mC]*dG*d[5mC]*dT*dG*dA*d[5mC]*d[5mC]*eA*e[5mC]; antisense) [compound 400307]	PCSK9 mRNA	%	93
400309 (e[5mC]*e[5mC]*d[5mC]*dG*dG*d[5mC]*d[5mC]*dG*d[5mC]*dT*dG*dA*e[5mC]*e[5mC]; antisense) [compound 400309]	PCSK9 mRNA	%	78

* * *

Here the recorded SGLT2 mRNA in kidney, % change relative to saline is given for each entry.
# Test system: SGLT2 mRNA
# assay-name: SGLT2 mRNA levels in kidney of Balb/c mice, twenty 1-10-1 MOE gapmers at 350 nmol/kg, PPS 534 and PPS 553 (Example 18, Table 74)
# Assay type: in vivo, mouse
# condition-summary: 350 nmol/kg i.p. twice per week for two weeks, primer probe set 553
Strand notation (5' to 3'): a small letter for the sugar, then the base; units joined by * are phosphorothioate-linked, units joined directly phosphodiester-linked; [ ] holds rarer units or linkages, { } end groups; capitals alone tell only the bases. e = 2'-O-(2-methoxyethyl) (MOE); [5mC] = 5-methylcytosine; d = 2'-deoxy (DNA)
experimental-endpoint: SGLT2 mRNA in kidney, % change relative to saline (%)

substance	recorded-result
379689 (antisense eA*dG*dA*dG*d[5mC]*dG*d[5mC]*dA*dT*dT*d[5mC]*e[5mC]) [compound 379689]	−30.4
379692 (antisense eT*dG*dT*dT*d[5mC]*d[5mC]*dA*dG*d[5mC]*d[5mC]*d[5mC]*eA) [compound 379692]	−88.5
379703 (antisense eG*d[5mC]*d[5mC]*dG*dG*dA*dG*dA*d[5mC]*dT*dG*eA) [compound 379703]	−45.9
379695 (antisense eG*dG*dA*d[5mC]*dA*d[5mC]*d[5mC]*dG*dT*d[5mC]*dA*eG) [compound 379695]	−64.1
379694 (antisense eG*dA*d[5mC]*dG*dA*dA*dG*dG*dT*d[5mC]*dT*eG) [compound 379694]	−54.4
379701 (antisense e[5mC]*d[5mC]*dA*dT*dG*dG*dT*dG*dA*dA*dG*eA) [compound 379701]	−11.9
379697 (antisense e[5mC]*dT*dG*dG*d[5mC]*dA*dT*dG*dA*d[5mC]*d[5mC]*eA) [compound 379697]	−46.3
379699 (antisense eG*dG*d[5mC]*dA*dT*dG*dA*dG*d[5mC]*dT*dT*e[5mC]) [compound 379699]	−85.8
379693 (antisense e[5mC]*dA*dT*dG*dG*dT*dG*dA*dT*dG*d[5mC]*e[5mC]) [compound 379693]	−59.9
379684 (antisense eT*dG*dT*d[5mC]*dA*dG*d[5mC]*dA*dG*dG*dA*eT) [compound 379684]	−43.2
379688 (antisense e[5mC]*d[5mC]*dA*dA*dG*d[5mC]*d[5mC]*dA*d[5mC]*dT*dT*eG) [compound 379688]	−70.4
379702 (antisense eG*d[5mC]*dA*d[5mC]*dA*d[5mC]*dA*dG*d[5mC]*dT*dG*e[5mC]) [compound 379702]	−89.5
379696 (antisense e[5mC]*dA*dG*d[5mC]*dT*dT*d[5mC]*dA*dG*dG*dT*eA) [compound 379696]	−36.2
370717 (antisense eT*dA*dG*d[5mC]*d[5mC]*dA*d[5mC]*d[5mC]*dA*dA*d[5mC]*eT) [compound 370717]	−84.3
